Cited source for all entries: PubChem BioAssay (NCI)

system: ACHN renal; test: NCI tumour cell line growth inhibition, 48 h
VALUE_TYPE: TGI

Guide cases for TGI, answers given:
1) COC(=O)[C@@]12CSC[C@]1(C(=O)OC)N[C@@H](c1ccccc1O)C2    > 100 µM
2) O=C(CCN1CCCC1)Nc1ccc2c(Nc3ccc(F)cc3)c3ccccc3nc2c1    1.98 µM
3) O=C1NC(c2ccccc2)(c2ccccc2)C(=O)N1CCCCCCN1C(=O)NC(c2ccccc2)(c2ccccc2)C1=O    > 100 µM

Here is another molecule to look at.
Q. Tell me TGI reported for "Cc1cc(NC(=O)NCCOc2ccc(N3C(N)=NC(N)=NC3(C)C)cc2Cl)ccc1S(=O)(=O)F"
A. > 100 µM

----------
tested on: P388 leukemia; test: NCI tumour cell line growth inhibition, 48 h
VALUE_TYPE: TGI (µM)
Numbers only; they are read as µM.

1) NC(CSC(c1ccccc1)(c1ccccc1)c1ccccc1)C(=O)O (centres undefined)    38.8

Here is another molecule to look at.
Q. Return reported TGI for target or system P388 leukemia, item "CN(C)CCNC(=O)c1cccc2c1C(=O)c1ccccc1C2=O" .
A. 43.9

----------
Let's look at some molecules and their measured TGI.
tested on: NCI-H226 lung; assay: NCI tumour cell line growth inhibition, 48 h

Q. Tell me TGI reported for "Nc1nc(N)nc(CCCCc2nc(N)nc(N)n2)n1"
A. > 100 µM

Q. Tell me TGI reported for "NCCCn1c(Cl)nc2ccccc21"
A. > 100 µM

Q. Tell me TGI reported for "O=C(CCN1CCCC1)Nc1ccc2c(Nc3ccc(F)cc3)c3ccccc3nc2c1"
A. 3.21 µM

----------
Let's look at some molecules and their measured TGI.
tested on: BT-549 breast; assay: NCI tumour cell line growth inhibition, 48 h
Where a SMILES comes first, the peptide text is derived from it. [ ]: non-standard residue; d: D form. Ava = NCCCCC(=O)O; Mpa = O=C(O)CCS

Guide cases for TGI, answers given:
1. O=C(O)/C=C/c1c2ccc(=O)c(O)c-2oc2c(O)c(O)ccc12    > 100 µM
2. O=C(Nc1cc(Cl)c(I)c(Cl)c1)C(F)(F)F    63 µM

Q. Tell me TGI reported for CC(NC(=O)CCS)C(=O)NC(C)C(=O)NC(Cc1c[nH]c2ccccc12)C(=O)NC(Cc1c[nH]cn1)C(=O)NC(CO)C(=O)NC(Cc1c[nH]c2ccccc12)C(=O)NCCCCC(=O)NC(C)C(=O)NC(CCC(N)=O)C(=O)NC(CCCCN)C(=O)NC(C)C(=O)NC(CCCNC(=N)N)C(=O)NC(CCCCN)C(N)=O (stereo not drawn) ([Mpa]AAWHSW[Ava]AQKARK-NH2; configuration not given here)
A. > 100 µM

----------
test system: SN12C renal; experiment: NCI tumour cell line growth inhibition, 48 h
VALUE_TYPE: TGI

Guide cases for TGI, answers given:
1. COc1cc(C[C@@]2(C)[C@@H]3CCC[C@H](CO)[C@@]3(C)CC[C@@H]2C)c(Cl)c(OC)c1    30 µM
2. COCN1COCN(C)C1=O    > 100 µM
3. O=C(O)/C=C/c1c2ccc(=O)c(O)c-2oc2c(O)c(O)ccc12    32.3 µM
4. CC1OC(NCCNCCNC2OC(C)C(O)C(O)C2O)C(O)C(O)C1O (stereo not given)    > 100 µM
5. CCC1c2[nH]c3ccccc3c2C[C@H]2C(=O)NC(C)C(=O)N12 (stereo not given in full)    > 100 µM
6. O=C(Nc1ccccc1C(=O)NCc1ccccc1)/C(=C/c1ccccc1O)NC(=O)c1ccccc1    > 100 µM
7. CCC1(O)C(=O)OCc2c1cc1n(c2=O)Cc2cc3cc4c(cc3nc2-1)OCO4 (stereo not given)    4.1 µM
8. O=[N+]([O-])c1ccccc1/C=N\NC(=S)N/N=C/c1ccccc1[N+](=O)[O-]    > 100 µM

Q. Tell me TGI reported for "O=c1[nH]c2nc3ccccc3c(=O)n2nc1Cc1ccccc1"
A. > 100 µM

Q. Tell me TGI reported for "NCCCn1c(Cl)nc2ccccc21"
A. > 100 µM
